The measured values listed here are drawn from patent US20130029928A1.

- experiment: Phase I study CXR1002-001: plasma pharmacokinetics (LC-MS/MS)
- Type: in vivo, human
- experimental conditions: human, plasma, oral, 1200 mg, Patient 034, 1200 mg, person, plasma, 340 hr; read-out: Concentration

mol smiles	concentration at 340 hr [µM]
O=C(O)C(F)(F)C(F)(F)C(F)(F)C(F)(F)C(F)(F)C(F)(F)C(F)(F)F	955

* * *

- experiment: Phase I study CXR1002-001: plasma pharmacokinetics (LC-MS/MS)
- Type: in vivo, human
- experimental conditions: human, plasma, oral, 200 mg, Patient 010 Dose 200 mg; 843 hr; read-out: Concentration

mol smiles	concentration at 843 h [µM]
O=C(O)C(F)(F)C(F)(F)C(F)(F)C(F)(F)C(F)(F)C(F)(F)C(F)(F)F	232

* * *

- experiment: Phase I study CXR1002-001: plasma pharmacokinetics (LC-MS/MS)
- Type: in vivo, human
- experimental conditions: human, plasma, oral, 100 mg, Patient 005 Dose 100 mg; 338 hr; read-out: Concentration
readout label: concentration at 338 h (µM)

compound	readout label	unit info	reported value
O=C(O)C(F)(F)C(F)(F)C(F)(F)C(F)(F)C(F)(F)C(F)(F)C(F)(F)F [CXR1002]	concentration at 338 h	µM	80.2

* * *

- experiment: Phase I study CXR1002-001: plasma pharmacokinetics (LC-MS/MS)
- Assay type: in vivo, human
- experimental conditions: human, plasma, po, 1000 mg, Patient 041, 1000 mg weekly oral dose, Time 192 hr (Day 9); read-out: Concentration (plasma level)

mol smiles	unit info	concentration at 192 hr
O=C(O)C(F)(F)C(F)(F)C(F)(F)C(F)(F)C(F)(F)C(F)(F)C(F)(F)F	µM	396

* * *

- experiment: Phase I study CXR1002-001: plasma pharmacokinetics (LC-MS/MS)
- Format: in vivo, human
- experimental conditions: human, plasma, po, 1200 mg, Patient 038, 1200 mg weekly oral dose, Time 172 hr; read-out: Concentration (plasma level)

mol smiles	concentration at 172 h
O=C(O)C(F)(F)C(F)(F)C(F)(F)C(F)(F)C(F)(F)C(F)(F)C(F)(F)F	538 µM

* * *

- experiment: Phase I study CXR1002-001: plasma pharmacokinetics (LC-MS/MS)
- Type: in vivo, human
- experimental conditions: human, plasma, oral, 300 mg, Patient 012 Dose 300 mg; 2 hr; read-out: Concentration
readout label: concentration at 2 h (µM)

molecule	readout label	unit info	reported value
O=C(O)C(F)(F)C(F)(F)C(F)(F)C(F)(F)C(F)(F)C(F)(F)C(F)(F)F [CXR1002]	concentration at 2 h	µM	91.4

* * *

- experiment: Phase I study CXR1002-001: plasma pharmacokinetics (LC-MS/MS)
- Type: in vivo, human
- experimental conditions: human, plasma, oral, 1200 mg, Patient 035, 1200 mg, person, plasma, 339 hr; read-out: Concentration
readout label: concentration at 339 hr (µM)

compound	unit info	reported value
O=C(O)C(F)(F)C(F)(F)C(F)(F)C(F)(F)C(F)(F)C(F)(F)C(F)(F)F [CXR1002]	µM	621

* * *

- experiment: Phase I study CXR1002-001: plasma pharmacokinetics (LC-MS/MS)
- Assay type: in vivo, human
- experimental conditions: human, plasma, oral, 600 mg, Patient 023, 600 mg, person, plasma, 170 hr; read-out: Concentration

mol smiles	unit info	concentration at 170 h
O=C(O)C(F)(F)C(F)(F)C(F)(F)C(F)(F)C(F)(F)C(F)(F)C(F)(F)F	µM	336
